All values here come from ChEMBL document CHEMBL1795311.

# System: DU-145
# EXPERIMENT_NOTES: Growth inhibition of human DU145 cells after 48 hrs by SRB assay
# Assay type: functional
# TEST_SETTINGS: DU-145, 48 h
Entries and their GI50
Note: unit µM is implicit; provide only the numeric part.

Below are worked cases with known answers.
                             entry_smiles  readout_number
0    NC(=O)c1cc(I)ccc1NC(=O)/C=C/c1ccccc1           0.477
1   NC(=O)c1cc(Br)ccc1NC(=O)/C=C/c1ccccc1           0.935
2  NC(=O)c1cc(I)ccc1NC(=O)/C=C/c1ccccc1Cl            1.28
3   NC(=O)c1cc(Cl)ccc1NC(=O)/C=C/c1ccccc1            2.16

Find the measured GI50: item `Cc1ccc(NC(=O)/C=C/c2ccccc2)c(C(N)=O)c1` , target or system DU-145.
3.66

----------
# Test system: OVCAR-4
# EXPERIMENT_NOTES: Growth inhibition of human OVCAR4 cells after 48 hrs by SRB assay
# Type: functional
# TEST_SETTINGS: OVCAR-4, 48 h
Entries and their GI50
Note: unit nM is implicit; provide only the numeric part.

>>> df
                             entry_smiles  readout_number
0  Cc1ccc(NC(=O)/C=C/c2ccccc2)c(C(N)=O)c1           11400
1  NC(=O)c1cc(I)ccc1NC(=O)/C=C/c1ccccc1Cl            2370
2   NC(=O)c1cc(Cl)ccc1NC(=O)/C=C/c1ccccc1            2770

What measured GI50 goes with `NC(=O)c1cc(I)ccc1NC(=O)/C=C/c1ccccc1` ?
1840

----------
Entries and their GI50
# System: SF-295
# EXPERIMENT_NOTES: Growth inhibition of human SF295 cells after 48 hrs by SRB assay
# Type: functional
# TEST_SETTINGS: SF-295, 48 h
Note: unit nM is implicit; provide only the numeric part.

Below are worked cases with known answers.
>>> print(df.to_string())
                             entry_smiles  unit_abbreviation  readout_number
0   NC(=O)c1cc(Cl)ccc1NC(=O)/C=C/c1ccccc1                 nM            1400
1  NC(=O)c1cc(I)ccc1NC(=O)/C=C/c1ccccc1Cl                 nM             415
2   NC(=O)c1cc(Br)ccc1NC(=O)/C=C/c1ccccc1                 nM             625
3    NC(=O)c1cc(I)ccc1NC(=O)/C=C/c1ccccc1                 nM             350

Could you now look at the following molecule, please?
Find the measured GI50: item `Cc1ccc(NC(=O)/C=C/c2ccccc2)c(C(N)=O)c1` , target or system SF-295.
3140

----------
# Tested on: MCF7
# EXPERIMENT_NOTES: Growth inhibition of human MCF7 cells after 48 hrs by SRB assay
# Format: functional
# TEST_SETTINGS: MCF7, 48 h
RECORDED_METRIC: GI50 (nM)
Note: unit nM is implicit; provide only the numeric part.

                            entry_smiles  study_target  unit_abbreviation  readout_number
0  NC(=O)c1cc(Cl)ccc1NC(=O)/C=C/c1ccccc1          MCF7                 nM            1740
1  NC(=O)c1cc(Br)ccc1NC(=O)/C=C/c1ccccc1          MCF7                 nM             569
2   NC(=O)c1cc(I)ccc1NC(=O)/C=C/c1ccccc1          MCF7                 nM             450

What measured GI50 goes with `NC(=O)c1cc(I)ccc1NC(=O)/C=C/c1ccccc1Cl` ?
401

What measured GI50 goes with `Cc1ccc(NC(=O)/C=C/c2ccccc2)c(C(N)=O)c1` ?
3480
